experiment: chemical genetic growth profiling, strain panel (AID 1159580);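 note: tested at 20 µM; growth read once vehicle control cultures reached saturation at 30 °C; 1 = growth at the plate median or of vehicle wells; lower values mean less growth of the strain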; conditions: S. cerevisiae deletion strains, growth OD, locus YHR129C, strain ARP1
The whole screen tested about 5,500 compounds, of which about 2,000 (36%) were called active. About 18% were inconclusive and are not listed. Cut-off read from the data, not from the text of the source: active = normalized growth mostly below about 0.91 (no sharp cut-off); inconclusive = no clear call, values can overlap the other calls; inactive = mostly above about 0.92. Some of the results follow.
Hi there, use one of these labels in your reply, thanks! Yes = active, No = inactive

Some solved entries appear below for comparison.
Q: State the result this test recorded for CC(=O)O[C@@H]1C2CC[C@@H]3C1(C[C@@H](O)[C@@]1(O)[C@@H](C[C@H](O)C1(C)C)[C@]3(C)O)C[C@@]2(C)O (stereo not given in full) .
A: No

Q: State the result this test recorded for `COc1cc2cccc(OC)c(=O)c2c(OC)c1OC` .
A: No

Q: State the result this test recorded for `CCCN(CCC)c1c([N+](=O)[O-])cc(C(F)(F)F)cc1[N+](=O)[O-]` .
A: No

Q: State the result this test recorded for CC(=O)OC1CCC23CC1(C)CCC2C(C)(C)CC3OC(C)=O (stereo not given) .
A: No

Turning now to a further compound:
Q: State the result this test recorded for `O=c1c(O)cccc2cc(O)c(O)c(O)c12` .
A: Yes

###

assay: chemical genetic growth profiling, strain panel (AID 1159580); details: S. cerevisiae deletion strains, growth OD, locus YJL187C, strain SWE1 (second series), hits give low values
Screen size: about 5,500 compounds; about 2,000 (36%) were called active. Roughly 18% stayed inconclusive and do not appear here. The list shows a part of the results.
property: normalized growth
Number only, please.

Past entries and their recorded results:
Q: Please look up its normalized growth: CN1CCCCC1c1ccc(-c2cccnc2)nc1 (stereo not given)
A: 1.04

Q: Please look up its normalized growth: C[C@H]1C(=O)CCC2[C@]3(C)CC[C@@]4(C)C5CC(C)(C)CC[C@]5(C)CC[C@]4(C)C3CC[C@@]21C (stereo not given in full)
A: 0.995

Q: Please look up its normalized growth: `CN1C(=O)CC[C@H]1c1cccnc1`
A: 1.01

Q: Please look up its normalized growth: `CNC(=O)Oc1cccc2c1OC(C)(C)C2`
A: 1.01

Turning now to a further record.
Q: Please look up its normalized growth: COC(=O)C(O)[C@H]1C(C)(C)[C@@H](OC(C)=O)[C@@H]2CC3=C4CC(=O)O[C@@H](c5ccoc5)[C@]4(C)CCC3[C@@]1(C)C2=O (stereo not given in full)
A: 0.993

###

test: chemical genetic growth profiling, strain panel (AID 1159580); settings: S. cerevisiae deletion strains, growth OD, locus YDR159W, strain sac3, hits give low values
Among all 5,500 compounds or so, about 2,000 (36%) were called active. Inconclusive results (about 18%) are left out. Some of the results follow.
Kindly apply the following: satisfied if normalized growth is less than 1, not satisfied in every other case.

Q: normalized growth strictly < 1 for this compound? `C=C[C@H]1CN2CC[C@H]1C[C@H]2[C@H](O)c1ccnc2ccccc12`
A: satisfied

Q: normalized growth strictly < 1 for this compound? `O=C(O)c1cc(=O)c2ccccc2[nH]1`
A: satisfied

Q: normalized growth strictly < 1 for this compound? COc1cc2c(cc1OC)C(C)NCC2 (configuration not stated)
A: satisfied

Q: normalized growth strictly < 1 for this compound? `COc1ccc(CC(=O)c2ccc(O)cc2O)cc1`
A: satisfied

Q: normalized growth strictly < 1 for this compound? CC12CCC(O)CC1CCc1ccccc12 (configuration not stated)
A: satisfied

New cases:
Q: normalized growth strictly < 1 for this compound? `CC(=O)Nc1c(I)cc(I)c(C(=O)O)c1I`
A: satisfied

Q: normalized growth strictly < 1 for this compound? CC(C)c1cc2c(c(O)c1O)[C@@]1(C(=O)O)CCCC(C)(C)C1CC2 (some centres not stated)
A: satisfied

Q: normalized growth strictly < 1 for this compound? `O=c1c(O)c(-c2ccccc2)oc2cccc(O)c12`
A: satisfied

###

test: chemical genetic growth profiling, strain panel (AID 1159580);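 note: tested at 20 µM; growth read once vehicle control cultures reached saturation at 30 °C; 1 = growth at the plate median or of vehicle wells; lower values mean less growth of the strain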; details: S. cerevisiae deletion strains, growth OD, locus YDL134C, strain PPH21, hits give low values
The campaign covered roughly 5,500 compounds. About 2,000 (36%) were called active. Another 18% or so got no clear call; they are omitted. Some of the results follow.
normalized growth overview
Number only, please.

Past entries and their recorded results:
Q: Please look up its normalized growth: `O=[N+]([O-])c1ccc(NCCCCCO)nc1`
A: 0.998

Q: Please look up its normalized growth: `Cc1cc(Oc2c([N+](=O)[O-])cc(C(F)(F)F)cc2[N+](=O)[O-])c2c(Cl)ccc(C)c2n1`
A: 0.887

Q: Please look up its normalized growth: `O=C(O)CCC(=O)OC[C@@H](NC(=O)C(Cl)Cl)[C@H](O)c1ccc([N+](=O)[O-])cc1`
A: 0.964

Q: Please look up its normalized growth: `O=C(N[C@@H](CO)[C@H](O)c1ccc([N+](=O)[O-])cc1)C(Cl)Cl`
A: 1

Q: Please look up its normalized growth: `CCCCN(CC)c1c([N+](=O)[O-])cc(C(F)(F)F)cc1[N+](=O)[O-]`
A: 1.01

New cases:
Q: Please look up its normalized growth: C[C@H]1C(=O)CCC2[C@]3(C)CC[C@@]4(C)C5CC(C)(C)CC[C@]5(C)CC[C@]4(C)C3CC[C@@]21C (some centres undefined)
A: 0.97

Q: Please look up its normalized growth: `COc1ccc(Oc2ccc(C(F)(F)F)cc2[N+](=O)[O-])cc1`
A: 1.03

Q: Please look up its normalized growth: O=C1C(=O)c2ccccc2C(O)=C1C1CCC(c2ccc(Cl)cc2)CC1 (centres undefined)
A: 0.983

Q: Please look up its normalized growth: `O=C(OCCNc1ccc([N+](=O)[O-])cn1)c1ccc([N+](=O)[O-])o1`
A: 0.961

###

test: chemical genetic growth profiling, strain panel (AID 1159580);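 note: tested at 20 µM; growth read once vehicle control cultures reached saturation at 30 °C; 1 = growth at the plate median or of vehicle wells; lower values mean less growth of the strain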; settings: S. cerevisiae deletion strains, growth OD, locus YLR357W, strain rsc2, hits give low values
The whole screen tested about 5,500 compounds, of which about 2,000 (36%) were called active. About 18% were inconclusive and are not listed. The list shows a part of the results.
Kindly apply the following: rule met if normalized growth is less than 1, rule not met in every other case.

Some solved entries appear below for comparison.
Q: normalized growth strictly < 1 for this molecule? `O=c1c(O)c(-c2ccc(O)cc2)oc2ccccc12`
A: rule met

Q: normalized growth strictly < 1 for this molecule? `O=C(N[C@@H](CO)[C@H](O)c1ccc([N+](=O)[O-])cc1)C(Cl)Cl`
A: rule not met

Q: normalized growth strictly < 1 for this molecule? `O=c1c(O)c(-c2ccccc2)oc2ccc3occc3c12`
A: rule met

New cases:
Q: normalized growth strictly < 1 for this molecule? `CC1=C(C(=O)O)N2C(=O)[C@@H](NC(=O)[C@@H](N)c3ccc(O)cc3)[C@H]2SC1`
A: rule not met

Q: normalized growth strictly < 1 for this molecule? `O=c1c(O)c(-c2ccccc2)oc2ccccc12`
A: rule met

Q: normalized growth strictly < 1 for this molecule? `O=C1C=CC(=O)c2ccccc21`
A: rule met

Q: normalized growth strictly < 1 for this molecule? CC(=O)OC1CCC23CC1(C)CCC2C(C)(C)CC3OC(C)=O (configuration not stated)
A: rule not met

Q: normalized growth strictly < 1 for this molecule? `CCCCCCCCCCCCCCCC(=O)OC[C@H](NC(=O)C(Cl)Cl)[C@H](O)c1ccc([N+](=O)[O-])cc1`
A: rule not met

Q: normalized growth strictly < 1 for this molecule? CC(=O)OC1CCC2(O)CC1(C)CCC1C2CC1(C)C (configuration not stated)
A: rule not met

Q: normalized growth strictly < 1 for this molecule? `O=c1c(O)c(-c2ccccc2)oc2cc(O)ccc12`
A: rule met

###

assay: chemical genetic growth profiling, strain panel (AID 1159580);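 note: tested at 20 µM; growth read once vehicle control cultures reached saturation at 30 °C; 1 = growth at the plate median or of vehicle wells; lower values mean less growth of the strain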; conditions: S. cerevisiae deletion strains, growth OD, locus YPL051W, strain arl3, hits give low values
Screen size: about 5,500 compounds; about 2,000 (36%) were called active. Not shown: some 18% with an inconclusive outcome. The list shows a part of the results.
normalized growth overview

Past entries and their recorded results:
Q: Please look up its normalized growth: ClC1C(Cl)C(Cl)C(Cl)C(Cl)C1Cl (stereo unspecified)
A: 0.872 (active)

Q: Please look up its normalized growth: `Cn1cnc2c1c(=O)[nH]c(=O)n2C`
A: 1 (inactive)

Q: Please look up its normalized growth: CC(=CC1CCC(C)C2C1=C(C)CC2O)C(=O)O (stereo unspecified)
A: 1.03 (inactive)

New cases:
Q: Please look up its normalized growth: CC(=CC1CCC(C)C2CCC(C)=C12)C(=O)O (stereo unspecified)
A: 0.907 (active)

Q: Please look up its normalized growth: COCC1=C(C(=O)OC(C)OC(=O)OC(C)C)N2C(=O)[C@@H](NC(=O)/C(=N\OC)c3csc(N)n3)[C@H]2SC1 (stereo partly specified)
A: 0.994 (inactive)

Q: Please look up its normalized growth: `CCC[C@@H]1C[C@@H](C(=O)N[C@H]([C@H]2O[C@H](SC)[C@H](O)[C@@H](O)[C@H]2O)[C@H](C)O)N(C)C1`
A: 1 (inactive)

Q: Please look up its normalized growth: `CC(C)=CCC/C(C)=C/CO`
A: 0.996 (inactive)

Q: Please look up its normalized growth: `Cn1c(=O)c2c(ncn2C)n(C)c1=O`
A: 0.949 (inactive)

Q: Please look up its normalized growth: `O=C1C=C(O)c2ccccc2C1=O`
A: 0.873 (active)

Q: Please look up its normalized growth: CC(C)CCCC(C)N (stereo unspecified)
A: 1.02 (inactive)

Q: Please look up its normalized growth: `Cn1c(=O)[nH]c2ncn(C)c2c1=O`
A: 0.982 (inactive)
